Hey, just so you know, these numbers are from paper PMC6965176.

Target: T1, recombinant human EphB4 (human), P54760
T1 chain: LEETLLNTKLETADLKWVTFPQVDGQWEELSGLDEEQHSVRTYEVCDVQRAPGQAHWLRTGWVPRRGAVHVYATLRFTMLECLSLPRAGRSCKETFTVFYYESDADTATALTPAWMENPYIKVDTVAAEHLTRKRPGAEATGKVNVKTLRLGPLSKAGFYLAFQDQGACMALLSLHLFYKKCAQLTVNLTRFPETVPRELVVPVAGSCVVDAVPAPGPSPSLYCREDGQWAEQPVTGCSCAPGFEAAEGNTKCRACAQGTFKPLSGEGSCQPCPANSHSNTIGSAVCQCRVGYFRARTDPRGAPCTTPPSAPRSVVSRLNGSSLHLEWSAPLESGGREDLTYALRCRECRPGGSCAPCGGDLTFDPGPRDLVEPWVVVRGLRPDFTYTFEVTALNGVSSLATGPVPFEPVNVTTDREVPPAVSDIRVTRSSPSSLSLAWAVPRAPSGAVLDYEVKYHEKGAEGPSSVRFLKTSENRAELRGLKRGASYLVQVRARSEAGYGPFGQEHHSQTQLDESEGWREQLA
Test: SPR; BIACore 3000; rhEphB4 amine-coupled to CM5 chips; peptides injected at 1.6 nM to 800 nM, 30 uL/min, in duplicate; 25 C; HBSEP buffer (0.01 M HEPES pH 7.4, 0.15 M NaCl, 3 mM EDTA, 0.005% P20); 1:1 Langmuir binding model, KD = Koff/Kon
quantity.measured: Kd (nM)
Report the figure in nM without appending any unit label.

Briefly, Kd measured for TNYLFSPNGPIARAW (modifications not checked) [YSA-TNYL-RAW-dimer] : 21
